Source listed as patent US20240293512A1.

assaySystem: human GCG receptor (human, UniProt P47871 26-477)
Sequence (P47871 26-477): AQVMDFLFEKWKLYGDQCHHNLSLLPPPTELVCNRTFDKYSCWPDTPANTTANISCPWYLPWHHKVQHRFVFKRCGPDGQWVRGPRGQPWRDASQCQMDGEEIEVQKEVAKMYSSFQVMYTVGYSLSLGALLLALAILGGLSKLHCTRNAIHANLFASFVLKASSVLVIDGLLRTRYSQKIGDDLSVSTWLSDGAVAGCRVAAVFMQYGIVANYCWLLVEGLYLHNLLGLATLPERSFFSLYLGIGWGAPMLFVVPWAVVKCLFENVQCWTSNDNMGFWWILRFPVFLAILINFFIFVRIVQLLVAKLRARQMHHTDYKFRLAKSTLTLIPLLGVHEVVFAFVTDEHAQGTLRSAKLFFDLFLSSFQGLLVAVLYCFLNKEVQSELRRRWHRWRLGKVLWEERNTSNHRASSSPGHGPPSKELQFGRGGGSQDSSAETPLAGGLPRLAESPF
protocolSummary: cell-based or functional assay
Bridge positions count the residues as written; N and C are the ends. Square brackets hold non-standard residues; d marks the D form. Ends that are not written are not given here. * marks the point of attachment. Acetyl(2-(4-imidazolyl)) = O=C(Cc1c[nH]cn1)*; Aib = CC(C)(N)C(=O)O
valueType: In vitro activity compared with native peptide (%) vs Glucagon (cAMP EC50)
Give bare numbers, in %.

These recorded examples may help you get a feel for the data.
| binder | resultValue |
| --- | --- |
| Y[Aib]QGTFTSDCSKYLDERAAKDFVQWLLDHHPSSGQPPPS (bridge 16-20) [triple agonist of SEQ ID NO: 72] | 1 |
| Y[Aib]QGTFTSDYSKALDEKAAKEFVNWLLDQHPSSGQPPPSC (bridge 16-20) [triple agonist of SEQ ID NO: 101] | 13.9 |
| Y[Aib]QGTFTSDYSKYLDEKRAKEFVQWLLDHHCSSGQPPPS (not fully specified (bridges)) [triple agonist of SEQ ID NO: 43] | 88.4 |

I would be grateful if you could provide In vitro activity compared with native peptide (%) vs Glucagon (cAMP EC50) for each of the following entries.
1. [Acetyl(2-(4-imidazolyl))][Aib]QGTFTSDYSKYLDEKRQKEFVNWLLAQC (bridge 16-20) [triple agonist of SEQ ID NO: 86]
2. H[Aib]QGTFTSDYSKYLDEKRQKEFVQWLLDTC (bridge 16-20) [triple agonist of SEQ ID NO: 52]
3. H[Aib]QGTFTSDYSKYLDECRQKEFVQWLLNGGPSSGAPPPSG (bridge 16-20) [triple agonist of SEQ ID NO: 37]
4. H[Aib]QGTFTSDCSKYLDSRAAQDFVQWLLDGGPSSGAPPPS [triple agonist of SEQ ID NO: 26]

RESULT:
1. 0.4
2. 7.5
3. 6.21
4. 0.2
